Target: FLuc-C-HiBiT (Photinus pyralis, UniProt P08659)
Construct: firefly luciferase with C-terminal HiBiT tag, E. coli expressed
Sequence (P08659 whole entry, looked up): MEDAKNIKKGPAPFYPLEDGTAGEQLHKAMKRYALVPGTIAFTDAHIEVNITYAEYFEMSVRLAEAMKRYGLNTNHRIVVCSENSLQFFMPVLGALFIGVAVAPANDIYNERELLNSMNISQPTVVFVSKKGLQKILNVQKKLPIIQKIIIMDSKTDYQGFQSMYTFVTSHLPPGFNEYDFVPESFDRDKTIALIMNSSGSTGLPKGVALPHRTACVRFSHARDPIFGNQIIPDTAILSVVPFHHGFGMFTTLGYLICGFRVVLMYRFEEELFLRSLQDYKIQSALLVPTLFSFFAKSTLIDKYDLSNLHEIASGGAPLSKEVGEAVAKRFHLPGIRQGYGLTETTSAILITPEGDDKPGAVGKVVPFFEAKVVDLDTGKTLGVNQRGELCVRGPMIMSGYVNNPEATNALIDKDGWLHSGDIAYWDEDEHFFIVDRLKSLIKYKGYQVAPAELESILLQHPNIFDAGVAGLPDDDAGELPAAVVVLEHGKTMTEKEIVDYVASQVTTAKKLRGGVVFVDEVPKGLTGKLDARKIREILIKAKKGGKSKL
Test: biochemical
Details: enzyme activity, 10 uM ATP; read-out: IC50 or SDR50 (mM) / FLuc E
valueKind: IC50 (mM)

INSERT INTO assay_data (smilesstring, targetentity, resultqualifier, recordedvalue) VALUES
  ('O=C(Nc1ncc(-c2ccccc2)c2c1OCC2)c1ccccc1', 'FLuc-C-HiBiT (Photinus pyralis, UniProt P08659)', '=', 0.018),
  ('CCOC(=O)c1cccc(Nc2nc(-c3ccccc3)no2)c1', 'FLuc-C-HiBiT (Photinus pyralis, UniProt P08659)', '=', 0.00624),
  ('COc1ccc(CNC(=O)c2ccc3c(c2)N=C(C)c2c(C)ccc(C)c2S3)cc1', 'FLuc-C-HiBiT (Photinus pyralis, UniProt P08659)', '>', 0.03),
  ('CNC(=O)c1cccc(-c2cnc(Nc3ccc(Cl)cn3)c3c2CCO3)c1', 'FLuc-C-HiBiT (Photinus pyralis, UniProt P08659)', '=', 0.0101),
  ('CC(=O)c1ccc(NC(=O)CCc2c(C)nc3cc(-c4ccc(Cl)cc4)nn3c2C)cc1', 'FLuc-C-HiBiT (Photinus pyralis, UniProt P08659)', '=', 0.00785),
  ('O=C1CC2(CCN(CC3CC3)CC2)Oc2cc(Cl)ccc21', 'FLuc-C-HiBiT (Photinus pyralis, UniProt P08659)', '=', 0.018),
  ('CC1(NC(=O)C2CC2)CN(Cc2nc(-c3ccccc3)cs2)C1', 'FLuc-C-HiBiT (Photinus pyralis, UniProt P08659)', '=', 0.0202),
  ('O=C(O)c1ccccc1-c1nc2ccccc2s1', 'FLuc-C-HiBiT (Photinus pyralis, UniProt P08659)', '>', 0.03),
  ('COc1ccccc1OCc1nc2ccccc2n1Cc1ccccc1', 'FLuc-C-HiBiT (Photinus pyralis, UniProt P08659)', '=', 0.014);

* * *

Biological target: FLuc-C-HiBiT (firefly luciferase) (Photinus pyralis, UniProt P08659, form not given/L550V)
Sequence (P08659 2-550 L550V, form open): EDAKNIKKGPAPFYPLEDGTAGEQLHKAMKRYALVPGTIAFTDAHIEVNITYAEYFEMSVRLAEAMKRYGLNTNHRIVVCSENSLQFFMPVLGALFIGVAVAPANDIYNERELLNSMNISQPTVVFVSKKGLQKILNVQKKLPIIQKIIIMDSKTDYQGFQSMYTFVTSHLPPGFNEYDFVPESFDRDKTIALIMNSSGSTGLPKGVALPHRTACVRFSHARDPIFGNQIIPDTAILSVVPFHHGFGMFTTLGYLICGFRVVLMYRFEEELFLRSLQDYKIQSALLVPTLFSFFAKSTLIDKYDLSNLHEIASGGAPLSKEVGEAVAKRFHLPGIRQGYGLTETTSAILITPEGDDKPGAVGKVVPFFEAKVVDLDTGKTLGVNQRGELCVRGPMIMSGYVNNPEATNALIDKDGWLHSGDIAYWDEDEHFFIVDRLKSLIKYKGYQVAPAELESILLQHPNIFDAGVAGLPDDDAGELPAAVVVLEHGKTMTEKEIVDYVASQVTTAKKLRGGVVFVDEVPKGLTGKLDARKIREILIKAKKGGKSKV
Experiment: Firefly luciferase (FLuc) enzymatic luminescence assay, FLuc-C-HiBiT
Format: biochemical
Parameters: key: % normalized; no enzyme control = 100% inhibition, DMSO = 0
Conditions: sheet Figure 1g (values as in Figure 1f); normalized activity; Log [Compound], M -4.48
FLuc Enzyme listing for selected compounds.
valueKind: FLuc Enzyme

INSERT INTO results (compound, targetentity, valuekind, recordedvalue) VALUES
  ('CC1CCCN(c2ncnc3c2cnn3-c2ccccc2)C1 (centres unmarked)', 'FLuc-C-HiBiT (firefly luciferase) (Photinus pyralis, UniProt P08659, form not given/L550V)', 'FLuc Enzyme', -96.2),
  ('O=C(O)CCSc1nnc(-c2ccc(Cl)cc2Cl)o1', 'FLuc-C-HiBiT (firefly luciferase) (Photinus pyralis, UniProt P08659, form not given/L550V)', 'FLuc Enzyme', -95.5),
  ('CC(CNC(=O)C1CCN(C(=O)c2ncn3c2COC(c2ccccc2)C3)CC1)c1ccccc1 (centres unmarked)', 'FLuc-C-HiBiT (firefly luciferase) (Photinus pyralis, UniProt P08659, form not given/L550V)', 'FLuc Enzyme', -89.1),
  ('Cc1ccc(-n2ncc3c(N4CCCCCC4)ncnc32)cc1', 'FLuc-C-HiBiT (firefly luciferase) (Photinus pyralis, UniProt P08659, form not given/L550V)', 'FLuc Enzyme', -96.8),
  ('O=C(O)c1cccc2c1CCN2C(=O)Nc1ccc(F)cc1', 'FLuc-C-HiBiT (firefly luciferase) (Photinus pyralis, UniProt P08659, form not given/L550V)', 'FLuc Enzyme', -95.5);
